In what follows, each item is paired with its log10 GI50 for HCT-15.
parameter: log10 GI50 (log10 of the value in µM)

[[record]]
molecule = "CC1C(OS(=O)(=O)c2ccc3nc(S)sc3c2)CC2C3(C)CCC2(C(C)C(=O)O)C(O)C13 (stereo not given)"
parameter = "log10 GI50"
test_value = 1.10

[[record]]
molecule = "CCCCCCCCOC(=O)C12Oc3ccc(-c4ccc5c(c4O)C(=O)C4=C(O)CC(C)C(O)C4(C(=O)OCCCCCCCC)O5)c(O)c3C(=O)C1=C(O)CC(C)C2O (stereo not given)"
parameter = "log10 GI50"
test_value = 1.40

[[record]]
molecule = "C/C(=N\\NC(N)=S)c1ccccn1.OB(O)c1ccccc1"
parameter = "log10 GI50"
test_value = 0.45

[[record]]
molecule = "Cc1cccc2c(=O)cc(-c3ccccc3)[nH]c12"
parameter = "log10 GI50"
test_value = 0.63

[[record]]
molecule = "O=C1c2cc3ccccc3cc2C2(c3ccc(Cl)cc3)NCCN12 (stereo not given)"
parameter = "log10 GI50"
test_value = 1.43

[[record]]
molecule = "C/C(=N\\NC(=S)NC(C)(C)C)c1nc2cccnc2[nH]1"
parameter = "log10 GI50"
test_value = 0.39

[[record]]
molecule = "CNc1nc2c(C)ccc3nc(N(C)C)[nH]c3c-2n1"
parameter = "log10 GI50"
test_value = 1.38


====

- System: SW-620
- measurement_notes: NCI tumour cell line growth inhibition, 48 h
Active and inactive are the calls of the source. No stated cut-off is given here; in the data, active = GI50 up to about 1.1 µM and inactive = higher.
Labels: 1.0 = active, 0.0 = inactive

[[record]]
compound = "CC1(C)CC(=O)c2c(N)n[nH]c2C1"
target_desc = "SW-620"
class_name = 0.0

[[record]]
compound = "COCC(=O)CP(=O)(OC)OC"
target_desc = "SW-620"
class_name = 0.0

[[record]]
compound = "Cc1cccc2c1Oc1ncccc1C2NC(=O)CN(C)C (stereo unspecified)"
target_desc = "SW-620"
class_name = 0.0

[[record]]
compound = "CNc1ncnc2c1cnn2COCC(O)CO (stereo unspecified)"
target_desc = "SW-620"
class_name = 0.0

[[record]]
compound = "C/C(=N\\Nc1ccc([N+](=O)[O-])cc1[N+](=O)[O-])c1ccc2ccccc2n1"
target_desc = "SW-620"
class_name = 0.0

[[record]]
compound = "N#CCCc1nc2ccc(Br)cc2c(=O)n1CCO"
target_desc = "SW-620"
class_name = 0.0

[[record]]
compound = "COc1cc(-c2c(C)c(C)nc(OC)c2C#N)cc(OC)c1OC"
target_desc = "SW-620"
class_name = 0.0

[[record]]
compound = "C=C1CC[C@@]2(OC1)OC1C[C@H]3[C@@H]4CC=C5C[C@@H](O)CC(OC6OCC(OC(=O)[C@@H](O)[C@@H](C)CC)C(OC(C)=O)C6OC6OC(C)C(O)C(O)C6O)[C@]5(C)[C@H]4CC[C@]3(C)C1[C@@H]2C (stereo partly specified)"
target_desc = "SW-620"
class_name = 0.0

[[record]]
compound = "Cc1cccc(-c2cc(O)c3cccnc3n2)c1"
target_desc = "SW-620"
class_name = 1.0

[[record]]
compound = "CCOC(=O)c1c(SC(=O)/C=C/c2ccccc2)n(-c2ccccc2)c(=S)n(-c2ccccc2)c1=O"
target_desc = "SW-620"
class_name = 0.0

[[record]]
compound = "CCOC(=O)C(=O)C(CCC(=O)c1ccc2ccccc2c1O)C(=O)OCC (stereo unspecified)"
target_desc = "SW-620"
class_name = 0.0

